test-target: α-glucosidase
method-description: α-glucosidase inhibitory activity assay (p-nitrophenyl glycoside substrate, 96-well, 405 nm)
conditions-used: PBS pH 7.0, 37 °C
Description: The α-glucosidase inhibitory activity was assayed according to the reported method. The inhibitory activity of α-glucosidase was tested in the 96-well plated with […] PBS (KH2PO4-K2HPO4, pH 7.0) buffer solution each. […] The assay was conducted in a 100 μL reaction system containing 20 μL enzyme stock solution, 69 μL PBS buffers and 1 μL of DMSO or testing materials. […] The results of IC50 values were calculated by the nonlinear regression analysis.
Listing of recorded IC50 by entry.

Cc1c(O)c(O)c(O)c2c1COC2=O [Compound 5, epicoccone B] | > 50 µM
CC1=CC2C=C(C)C(C)C3C(CC(C)C)NC(=O)C23C(=O)C2C3OC(c4c(C)c(O)c(O)c(O)c43)C2C(=O)CCC1 (stereo not shown) [Compound 1, asperchalasine I] | 17.1 µM
CC1=C(C)C2(C)C(=O)C(O)(C1=O)C1(C)C(=O)C2(O)C(=O)C(C)=C1C [Compound 2, dibefurin B] | > 50 µM
CC(O)C1OCc2c(O)cccc21 (stereo not shown) [Compound 3] | > 50 µM
Cc1c(O)cc(O)c(C(=O)OC[C@@H](O)[C@H](O)[C@H](O)CO)c1C [Compound 7, paeciloside A] | > 50 µM

Reported IC50, molecule COC(=O)c1c(C)c(O)c(O)c(O)c1C=O [Compound 4] : ____
> 50 µM

Reported IC50, molecule Cc1c(O)c(O)c(O)c(C=O)c1-c1cc2c(C=O)c(C)c(O)c(O)c2o1 [Compound 8, epicoccolide B] : ____
26.7 µM
